Record form. Attribute: boiling point. Fill in for each entry.
Answers are plain numbers, in °C.

// lookup boiling point for NC1CCCCCCC1 190

// lookup boiling point for FCc1ccccc1 140

// lookup boiling point for CCOC(O)C(F)(F)F (configuration not stated) 104

// lookup boiling point for C[C@H]1CCC[C@H](C)C1=O 175

// lookup boiling point for CN(C)c1ccc(N)cc1 263

Hey, can you go through the list below and give me boiling point for every item?
1. C=CC=CCC
2. CC(C)c1ccccc1
3. C1CCCCCCC1
4. CCCCCCCCCCCCCCC(=O)O
5. Oc1ccc(O)c(Cl)c1
6. CC(O)CNCC(C)O (configuration not stated)

1: 73.5; 2: 152; 3: 149; 4: 339; 5: 263; 6: 250

Hey, can you go through the list below and give me boiling point for every item?
1. CC1CCCC(O)C1 (configuration not stated)
2. O=C1CCCN1
3. Cc1ccc(C)c(O)c1
4. CCc1cccs1
5. Cc1cccnc1C
6. C=CC(C)(C)CC

[163, 245, 211, 134, 161, 77.5]

###

Record form. Attribute: melting point. Fill in for each entry.
Numbers only, in °C.

Please review the entries below; each comes with its answer.
// lookup melting point for CCOc1ccc(NC(=O)CN)cc1 100

// lookup melting point for Cc1ccccc1NC(=N)NC(=N)N 144

// lookup melting point for CC(C)C(=NO)C(C)C 34

// lookup melting point for CCCCCCCCCCCC[N+](CCO)(CCO)Cc1ccccc1.[Cl-] 108

// lookup melting point for COC(=O)C(C)Oc1ccc(Oc2ncc(C(F)(F)F)cc2Cl)cc1 (stereo not given) 56

// lookup melting point for COc1cc([N+](=O)[O-])ccc1N 141

// lookup melting point for COc1ccc2c(c1OC)C(=O)O[C@@H]2[C@H]1c2cc3c(cc2CCN1C)OCO3 132

// lookup melting point for O=C(O)c1cccc(F)c1 124

Hey, can you go through the list below and give me melting point for every item?
1. CCC(c1ccc2cc(OC)ccc2c1)C(C)(C)C(=O)O (stereo not given)
2. CC(=O)Nc1ccc2c(c1)Cc1ccccc1-2

[140, 193]

###

Record form. Attribute: boiling point. Fill in for each entry.
Answers are plain numbers, in °C.

Please review the entries below; each comes with its answer.
// lookup boiling point for COCC(O)CO (stereo not drawn) 220

// lookup boiling point for Fc1ccc(N=C=S)cc1 228

// lookup boiling point for COC(F)(F)C(Cl)Cl 105

// lookup boiling point for Clc1ccnc2ccccc12 262

// lookup boiling point for C=CC(=O)OC1CCCCC1C (stereo not drawn) 210

Hey, can you go through the list below and give me boiling point for every item?
1. CCCCCCCCOC(=O)CCCCCC
2. O=C(O)C(Cl)Cl
3. COC(=O)CCC(=O)OC
4. Fc1c(F)c(F)c(F)c(F)c1F
5. CC(C)(N)CO

1. 290
2. 194
3. 196
4. 80.2
5. 166

Hey, can you go through the list below and give me boiling point for every item?
1. C=CCCCCCCCC
2. COCCc1ccccn1
3. Cc1ccc2cccc(C)c2n1
4. CCCCCC1CCCC1
5. FC(F)(F)C(F)(F)F
6. CCCCC(C)(O)CC (stereo not drawn)
7. CCC(C)CC(O)CC (stereo not drawn)

1. 170
2. 203
3. 255
4. 180
5. -78.1
6. 163
7. 172

Hey, can you go through the list below and give me boiling point for every item?
1. CC(=O)C1CCCCC1
2. NC(=O)c1ccccc1[N+](=O)[O-]
3. C=Cc1ccc(C)cc1

180
317
173

###

melting point vs 40 °C: at or above is MET, below is NOT MET.

Some solved cases for reference:
Could you tell me if the measured melting point of ClCc1ccc2c(c1)OCO2 reaches 40 °C or more? NOT MET

Could you tell me if the measured melting point of CCOP(=S)(OCC)SCSC(C)(C)C reaches 40 °C or more? NOT MET

Could you tell me if the measured melting point of C1=CCCC=CCC1 reaches 40 °C or more? NOT MET

Next:
Could you tell me if the measured melting point of CC(CN(C)C)CN1c2ccccc2CCc2ccccc21 (centres undefined) reaches 40 °C or more? MET

Could you tell me if the measured melting point of CC(C)(C)c1ccccc1O reaches 40 °C or more? NOT MET

Could you tell me if the measured melting point of CS(=O)(=O)CCCN=C=S reaches 40 °C or more? MET

Could you tell me if the measured melting point of c1ccnnc1 reaches 40 °C or more? NOT MET

Could you tell me if the measured melting point of Ic1cc(I)c(I)c(I)c1I reaches 40 °C or more? MET

Could you tell me if the measured melting point of ClC(Cl)Br reaches 40 °C or more? NOT MET

Could you tell me if the measured melting point of CN1C(=O)C=CC1=O reaches 40 °C or more? MET

Could you tell me if the measured melting point of Nc1ccc(C=CC(=O)O)cc1 reaches 40 °C or more? MET

Could you tell me if the measured melting point of Nc1ccc2ccc3cccc4ccc1c2c34 reaches 40 °C or more? MET

Could you tell me if the measured melting point of Cc1ccc2nc3c(ccc4ccccc43)c(C)c2c1 reaches 40 °C or more? MET

Could you tell me if the measured melting point of Sc1ccccn1 reaches 40 °C or more? MET

Could you tell me if the measured melting point of C=CC1(C)OC(=O)N(c2cc(Cl)cc(Cl)c2)C1=O (centres undefined) reaches 40 °C or more? MET

Could you tell me if the measured melting point of Cc1cc(Cc2cc(C)cc(C(C)(C)C)c2O)c(O)c(C(C)(C)C)c1 reaches 40 °C or more? MET

Could you tell me if the measured melting point of COc1ccc(O)c([N+](=O)[O-])c1 reaches 40 °C or more? MET

Could you tell me if the measured melting point of O=S(=O)(Cc1ccccc1)c1ccccc1 reaches 40 °C or more? MET

Could you tell me if the measured melting point of NC1CCCCC1 reaches 40 °C or more? NOT MET

Could you tell me if the measured melting point of O=[N+]([O-])c1ccc(O)c(O)c1 reaches 40 °C or more? MET

###

Record form. Attribute: melting point. Fill in for each entry.
One number for each entry, in °C.

Please review the entries below; each comes with its answer.
// lookup melting point for CN(C)C(=O)COC(=O)c1ccccc1 81.5

// lookup melting point for CC(=O)Cc1c[nH]c2ccccc12 116

// lookup melting point for CCC(Br)CBr (centres undefined) -65.4

Consider the record given below.
// lookup melting point for FC(Cl)Cl -135

###

Quantity measured: melting point (°C)
One number for each entry, in °C.

// lookup melting point for BrC1c2ccccc2-c2ccccc21 104

// lookup melting point for CN(C)C(=O)N[C@@H]1C[C@@H]2C[C@H]1[C@@H]1CCC[C@H]21 177

// lookup melting point for O=C1Cc2ccccc2N1 128

// lookup melting point for CCC(=O)c1c(O)cc(O)cc1O 176

// lookup melting point for NC12CC3CC(CC(C3)C1)C2 180

// lookup melting point for Cc1ccnc(Cl)c1 115

// lookup melting point for CC(=O)[C@H]1CC[C@H]2[C@@H]3C[C@H](C)C4=CC(=O)CC[C@]4(C)[C@H]3[C@@H](O)C[C@]12C 156

// lookup melting point for O=C(O)CCCCCBr 35

// lookup melting point for O=C(Oc1ccc2ccccc2c1)c1ccccc1 107

// lookup melting point for C/C=C/C(C)CC (stereo not given) -126

Hey, can you go through the list below and give me melting point for every item?
1. NCCCCCCO
2. CC(Cc1ccccc1)NC(C#N)c1ccccc1 (stereo not given)
3. CCCCc1ccc(C(=O)O)nc1
4. CCOC(=O)C(Cl)Cc1cc(-n2nc(C)n(C(F)F)c2=O)c(F)cc1Cl (stereo not given)
5. C=C1/C(=C\C=C2/CCC[C@]3(C)[C@@H]([C@H](C)CCCC(C)(C)O)CC[C@@H]23)C[C@@H](O)C[C@@H]1O

57
86
97
-22.1
115

Hey, can you go through the list below and give me melting point for every item?
1. c1ccc(Cc2ccncc2)cc1
2. O=C(C(Cl)Cl)C(Cl)(Cl)Cl
3. NC(=O)c1nc(-c2ccccc2)n(-c2ccc(Cl)c(COCC(F)(F)C(F)(F)F)c2)n1
4. c1ccc(-c2ccc(-c3ccccc3)o2)cc1
5. CN(C=O)c1ccccc1
6. N#CCc1ccc2ccccc2c1
7. O=C=Nc1ccc(Cl)c(Cl)c1

[12.4, 2.1, 146, 91, 14.5, 83, 43]

Hey, can you go through the list below and give me melting point for every item?
1. COc1cc(O)c2c(=O)c(O)c(-c3ccc(O)c(O)c3)oc2c1
2. C(=N\C(/N=C/c1ccco1)c1ccco1)/c1ccco1
3. CCCCC=O
4. Cc1csc(NS(=O)(=O)c2ccc(N)cc2)n1
5. Cc1c(Cl)ccc(O)c1Cl

295
117
-91.5
237
58
